experiment: cytotoxicity in HPDE-C7 cells, cell-based, fluorescence, HTS (AID 430); settings: HPDE-C7 pancreatic duct cells viability, at 10 µM, stronger effect = higher value;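 note: cells exposed to compound for 48 hours before viability readout; 0% = vehicle and 100% = reference cytotoxic drug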
In all, about 63,000 compounds went through this assay and about 1,100 (1.7%) were called active. The sample holds actives, similar compounds and a random draw of the others, so the mix is not that of the screen. Results with a measured potency or affinity are listed apart.
Each entry below carries its reported cytotoxicity.

>  <COMPOUND>
c1coc(-c2nc3nc4ccccc4n3nc2-c2ccco2)c1

>  <cytotoxicity (%)>
77.5

$$$$
>  <COMPOUND>
c1coc(-c2nc3ccccc3nc2-c2ccco2)c1

>  <cytotoxicity (%)>
-5.7

$$$$
>  <COMPOUND>
c1coc(-c2nc(-c3ccco3)c(-c3ccco3)nc2-c2ccco2)c1

>  <cytotoxicity (%)>
-9.1

$$$$
>  <COMPOUND>
CCC(C)SCc1nc2ccccc2[nH]1 (centres undefined)

>  <cytotoxicity (%)>
-5.4

$$$$
>  <COMPOUND>
COc1ccc(-c2nnc(SCc3ncc(-c4ccccc4)o3)o2)cc1

>  <cytotoxicity (%)>
-2.9

$$$$
>  <COMPOUND>
N#Cc1ccc(CSc2nnc(-c3cnccn3)o2)cc1

>  <cytotoxicity (%)>
-3

$$$$
>  <COMPOUND>
CCn1c(C(O)c2ccccc2)nc2ccccc21 (centres undefined)

>  <cytotoxicity (%)>
-4.3

$$$$
>  <COMPOUND>
Cc1ccc(NC(=O)N2CCC(C(=O)NCCC3=CCCCC3)CC2)cc1

>  <cytotoxicity (%)>
-6.2

$$$$
>  <COMPOUND>
CC(C)(C)c1ccccc1OCCCCCNCCO

>  <cytotoxicity (%)>
9.8

$$$$
>  <COMPOUND>
COc1ccc(CCN2C(=O)c3[nH]nc(-c4ccccc4O)c3C2c2cccc(O)c2)cc1OC (centres undefined)

>  <cytotoxicity (%)>
66

$$$$
>  <COMPOUND>
O=C(Nc1nnc(-c2ccccc2Cl)o1)c1ccc(S(=O)(=O)N2CCCCCC2)cc1

>  <cytotoxicity (%)>
53.6

$$$$
>  <COMPOUND>
CC(=O)Oc1cc2c(C(C)=O)coc2c2ccccc12

>  <cytotoxicity (%)>
4.5

$$$$
>  <COMPOUND>
COc1ccc(C2c3c(-c4cc(Cl)c(C)cc4O)n[nH]c3C(=O)N2Cc2cccnc2)cc1OC (centres undefined)

>  <cytotoxicity (%)>
26.6

$$$$
>  <COMPOUND>
COc1cc(C2c3c(-c4cc(C)cc(C)c4O)n[nH]c3C(=O)N2CCCO)cc(OC)c1OC (centres undefined)

>  <cytotoxicity (%)>
0.6

$$$$

----------
experiment: cytotoxicity in HPDE-C7 cells, cell-based, fluorescence, HTS (AID 430); conditions: HPDE-C7 pancreatic duct cells viability, at 10 µM, stronger effect = higher value;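 note: cells exposed to compound for 48 hours before viability readout; 0% = vehicle and 100% = reference cytotoxic drug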
Hit rate of the full screen: of about 63,000 compounds, about 1,100 (1.7%) were called active. The sample holds actives, similar compounds and a random draw of the others, so the mix is not that of the screen. Potency and affinity values are given separately.
Each entry below carries its reported cytotoxicity.
ENDPOINT_LABEL: cytotoxicity (%)

>  <COMPOUND>
CC(C)C[C@H](NC(=O)OC(C)(C)C)c1nnc(SCc2cccc(F)c2)o1

>  <RECORDED_MEASUREMENT>
-12

$$$$
>  <COMPOUND>
O=C(c1cccn2c(=O)c3ccc(Cl)cc3nc12)N1CCN(Cc2ccc3c(c2)OCO3)CC1

>  <RECORDED_MEASUREMENT>
-0.1

$$$$
>  <COMPOUND>
CCOC(=O)C1CCCN(CC(=O)Nc2c(C(=O)OC)[nH]c3ccc(C)cc23)C1 (configuration not stated)

>  <RECORDED_MEASUREMENT>
-8.3

$$$$
>  <COMPOUND>
CC(C)[C@H](NC(=O)OC(C)(C)C)c1nnc(S(=O)(=O)Cc2c(F)cccc2Cl)o1

>  <RECORDED_MEASUREMENT>
-7.3

$$$$
>  <COMPOUND>
COC(=O)CS(=O)(=O)c1nnc([C@H](Cc2ccccc2)NC(=O)OC(C)(C)C)o1

>  <RECORDED_MEASUREMENT>
-7.1

$$$$
>  <COMPOUND>
COc1ccc(C(=O)c2ccc(N(C)C)cc2)c(OC)c1

>  <RECORDED_MEASUREMENT>
68.7

$$$$
>  <COMPOUND>
CCOc1ccc(NC(=O)c2ccccc2NC(=O)CN2CCN(C(C)=O)CC2)cc1

>  <RECORDED_MEASUREMENT>
-0.6

$$$$
>  <COMPOUND>
CC(C)CC(=O)Nc1ccc(-c2cn3ccsc3n2)cc1

>  <RECORDED_MEASUREMENT>
51.9

$$$$
>  <COMPOUND>
C=CCn1c(O)c(C2=c3ccccc3=NC2=O)sc1=Nc1ccc(O)cc1

>  <RECORDED_MEASUREMENT>
111

$$$$
>  <COMPOUND>
CC(=O)Nc1ccc(-c2cn3ccsc3n2)cc1

>  <RECORDED_MEASUREMENT>
10.2

$$$$
>  <COMPOUND>
COCC(C)NC(=O)c1cc(-c2cccc(OC)c2)on1 (configuration not stated)

>  <RECORDED_MEASUREMENT>
-3.6

$$$$
>  <COMPOUND>
COc1cc(CC(=O)NCc2ccc3c(c2)OCO3)cc(OC)c1OC

>  <RECORDED_MEASUREMENT>
-7.2

$$$$
>  <COMPOUND>
O=C(Nc1nc(-c2ccc(Cl)s2)cs1)c1cccs1

>  <RECORDED_MEASUREMENT>
12.2

$$$$
>  <COMPOUND>
COc1ccc(C(=O)c2ccc(N3CCOCC3)cc2)c(OC)c1

>  <RECORDED_MEASUREMENT>
7.3

$$$$
>  <COMPOUND>
Cc1ccc(S(=O)(=O)CCc2nnc(NC(=O)c3cnccn3)s2)cc1

>  <RECORDED_MEASUREMENT>
-8.2

$$$$
>  <COMPOUND>
Cc1ccccc1NC(=O)c1ccc(F)c(S(=O)(=O)N2CCN(c3ccccn3)CC2)c1

>  <RECORDED_MEASUREMENT>
-26.8

$$$$
>  <COMPOUND>
Cc1ccc(S(=O)(=O)NCc2ccncc2)cc1

>  <RECORDED_MEASUREMENT>
3.6

$$$$
>  <COMPOUND>
CC(C(=O)Nc1sccc1C(N)=O)N1C(=O)C2CC=CCC2C1=O (configuration not stated)

>  <RECORDED_MEASUREMENT>
-1.9

$$$$
>  <COMPOUND>
COc1cc([C@@H]2c3cc4c(cc3[C@H](O)[C@H]3COC(=O)[C@H]23)OCO4)cc(OC)c1OC

>  <RECORDED_MEASUREMENT>
67.2

$$$$
>  <COMPOUND>
CCOC(=O)CSc1nnc([C@H](CC(C)C)NC(=O)OC(C)(C)C)o1

>  <RECORDED_MEASUREMENT>
1.4

$$$$
>  <COMPOUND>
Cc1ccc2cccc(S(=O)(=O)N3CCN(c4cccc(Cl)c4)CC3)c2n1

>  <RECORDED_MEASUREMENT>
7

$$$$
>  <COMPOUND>
Cc1nc2c(o1)CCc1ccccc1C2N1CCN(C)CC1 (configuration not stated)

>  <RECORDED_MEASUREMENT>
-16.4

$$$$
